Taken from patent US7388024B2.

# Experimental System: Human 5HT6 Receptor (Homo sapiens)
# Assay: Binding Assay for Human 5HT6 Receptor
# Condition Label: [3H]LSD 1.5 nM; human recombinant receptor expressed in HEK293 cells
pIC50: −log10 of the molar value.
Result Type: pIC50

a = COc1ccc2c(c1)c(C1CCN(C)C1)c1n2S(=O)(=O)c2ccccc2-1 (centres unmarked) [drawing 19]
b = COc1ccc2c(c1)c(C1CCN(C)C1)c1n2S(=O)(=O)c2ccccc2-1 (centres unmarked) [drawing 20]
(Q) Higher pIC50: a or b ? Identify your pick by its label.
(A) a
(a: 6.69, b: 6.42)

---

# Experimental System: Human 5HT6 Receptor (Homo sapiens, UniProt P50406)
# Sequence (P50406 whole entry): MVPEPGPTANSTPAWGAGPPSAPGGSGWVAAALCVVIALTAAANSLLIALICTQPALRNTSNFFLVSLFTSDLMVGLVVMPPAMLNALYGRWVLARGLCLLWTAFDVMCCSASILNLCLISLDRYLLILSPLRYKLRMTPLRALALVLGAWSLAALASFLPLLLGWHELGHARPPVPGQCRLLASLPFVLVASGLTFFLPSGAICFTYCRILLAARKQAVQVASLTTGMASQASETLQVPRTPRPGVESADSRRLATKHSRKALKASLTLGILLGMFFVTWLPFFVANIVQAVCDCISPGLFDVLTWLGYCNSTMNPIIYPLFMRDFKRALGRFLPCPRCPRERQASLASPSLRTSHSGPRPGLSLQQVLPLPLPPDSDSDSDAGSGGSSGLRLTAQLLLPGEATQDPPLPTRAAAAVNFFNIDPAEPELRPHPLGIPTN
# Assay: Binding Assay for Human 5HT6 Receptor
# Condition Label: [3H]LSD 1.5 nM; human recombinant receptor expressed in HEK293 cells
Result Type: Ki (nM)

I = COc1ccc2c(c1)c(C1CCN(C)C1)c1n2S(=O)(=O)c2ccccc2-1 (centres unmarked) [drawing 19]
II = COc1ccc2c(c1)c(C1CCN(C)C1)c1n2S(=O)(=O)c2ccccc2-1 (centres unmarked) [drawing 20]
(Q) Hi there! Just curious which has the higher Ki between I and II . Provide the label of your selected option as the answer.
(A) II
